Values from patent US11046716B2

tested target: SHV-5 (Klebsiella pneumoniae, UniProt P0A3M1)
Sequence (P0A3M1 22-286): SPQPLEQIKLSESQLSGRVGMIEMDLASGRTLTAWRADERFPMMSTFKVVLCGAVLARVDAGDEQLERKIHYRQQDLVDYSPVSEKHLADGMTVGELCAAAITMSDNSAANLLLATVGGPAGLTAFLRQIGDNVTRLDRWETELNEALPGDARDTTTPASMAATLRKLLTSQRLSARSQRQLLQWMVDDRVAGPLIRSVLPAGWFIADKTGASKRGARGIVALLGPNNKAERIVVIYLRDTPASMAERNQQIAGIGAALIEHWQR
assay comment: β-lactamase enzyme inhibition assay, SHV-5 (cefotaxime substrate)
pIC50: −log10 of the molar value.
Please respond with reported pIC50 for every item in the list.

Q: Which measured pIC50 value corresponds to O=C(Cn1cc(C(=O)N[C@H]2CCNC2)nn1)N[C@H]1Cc2cccc(C(=O)O)c2OB1O [Example 81] ?
Ans: > 7.00

Q: Using the record for NCCSCc1cn(CC(=O)N[C@H]2Cc3cccc(C(=O)O)c3OB2O)nn1 [Example 63] , report its pIC50.
Ans: > 7.00

Q: // query pIC50 value for entry NCCn1cnc(CC(=O)N[C@H]2Cc3cccc(C(=O)O)c3OB2O)n1 [Example 118]
Ans: 6.00 to 7.00

Q: Recorded pIC50 for Nc1cnn(CC(=O)N[C@H]2Cc3cccc(C(=O)O)c3OB2O)c1 [Example 58] , please?
Ans: > 7.00
